system: KM12 colon; assay: NCI-60 one-dose screen, 48 h; conditions: 10 µM unless noted
Compounds without any hit were thinned out: in the full panel of roughly 83,000, 20% have a hit. Activity calls are given as the source filed them. Rule for the calls: active = growth percent below 10; inactive = the rest.
Can you answer with just one of these options? active, inactive

# example entries with known answers
compound	target.entity	answer.label
Fc1cc2[nH]ncc2c2c3c(c(-c4cn[nH]c4C(F)(F)F)nc12)C1CCC3C1 (stereo not given)	KM12 colon	active
C=C(C)[C@@H]1CC[C@]2(COC(=O)c3ccccc3C(=O)O)CC[C@]3(C)[C@H](CC[C@@H]4[C@@]5(C)CC[C@H](OC(=O)c6ccccc6C(=O)O)C(C)(C)[C@@H]5CC[C@]43C)[C@@H]12	KM12 colon	inactive
Cc1cc(C)c(O)c(CNCCCNCc2cc(C)cc(C)c2O)c1	KM12 colon	inactive
CC(C)=CCC[C@](C)(O)[C@H]1CC[C@]2(C)[C@@H]1CC[C@@H]1[C@@]3(C)CC/C(=N/O)C(C)(C)[C@@H]3CC[C@]12C	KM12 colon	inactive
CC(C)CCSc1nc(N)nc2nc[nH]c12	KM12 colon	inactive
Nc1cc(Cl)cc2cccnc12	KM12 colon	inactive
Nc1cc(N)c(N=Nc2ccc(S(=O)(=O)O)cc2)cc1N=Nc1ccc(-c2ccc(N=Nc3ccc(O)c(C(=O)O)c3)cc2)cc1	KM12 colon	inactive
O=C(N/N=C\c1cc(Cl)ccc1O)N/N=C/c1cc(Cl)ccc1O	KM12 colon	inactive
O=S(=O)(NCCCNc1nccc(-c2c(-c3cccc(F)c3)nc3occn23)n1)c1cccc2ccccc12	KM12 colon	inactive
COc1cc(OC)c(/C=C/C(=O)c2c(N)cc(OC)cc2OC)c(OC)c1	KM12 colon	inactive

# input Check the results log: what was the call for `CC1(C)CC[C@]2(C(=O)O)CC[C@]3(C)C(=CC[C@@H]4[C@@]5(C)C/C(=C/c6ccco6)C(=O)C(C)(C)[C@@H]5CC[C@]43C)[C@@H]2C1` ?
# output active

# input Query: recorded result category for `Cc1ccc(-n2nc3n(/c2=N\C(=O)NS(=O)(=O)c2ccc(C)cc2)CCN3C2=NCCN2)cc1` in this test
# output inactive

# input For this compound, state the assay outcome: `O=C(Nc1ccc(CN2CCOCC2)c(C(F)(F)F)c1)c1nc2ccc3[nH]ncc3c2c2c1CCCC2`
# output inactive

# input Each compound tested received a call. Report the one for `C#C[C@]1(O)CC[C@H]2[C@@H]3CC=C4c5nc(Nc6ccc(OC)cc6OC)sc5CC[C@]4(C)[C@H]3CC[C@@]21C` .
# output active

# input Recorded test call requested for `C[C@]12CCc3nc(Nc4ccccc4)sc3C1=CC[C@@H]1[C@@H]2CC[C@]2(C)/C(=N/NC(N)=S)CC[C@@H]12`
# output inactive

###

Item-by-item account of growth
test system: PC-3 prostate; assay: NCI-60 one-dose screen, 48 h (100 = growth as untreated, 0 = no growth, -100 = all killed); details: 10 µM unless noted
About 83,000 compounds went through this panel and 20% of them were active in at least one assay; those are over-represented in the sample as a whole.
Please reply with the bare figure in % and do not write the unit itself.

compound	measurement.type	result.units	data.value
COc1ccc(-c2cc(-c3ccc(OC)c(OC)c3)nc(SCCCCCC(=O)NO)n2)cc1	growth	%	64.5
CCOC(=O)c1nn(C2CCCCO2)c2ccc(NC(=O)CN3CCOCC3)cc12 (configuration not stated)	growth	%	107
COc1ccc(C(=O)CSc2nccc(Nc3ccc(C(=O)O)cc3)n2)cc1	growth	%	102
C=CCCCCCCCCC(=O)OC(C)C	growth	%	99.7
CCCCCCCCCCCCNC(=S)N/N=C/c1ccccc1O	growth	%	69.5
COc1ccc(C=C2c3ccccc3-c3ccccc32)cc1	growth	%	63.6

# input Please indicate growth recorded for `COc1cc(OC)cc(C(=O)Nc2cc(-c3cccnc3)nc(NCCCN3CCOCC3)n2)c1`
# output 85.4

# input Give recorded growth. `Cc1nc(-c2ccccc2)sc1CC#N`
# output 108

# input Query growth for `Cc1cccc(C[C@H](NC(=O)Nc2ccc(C)cc2F)C(=O)N[C@@H]2C(=O)N3C[C@H](O)C[C@H]3C(=O)N3CCN(C)C[C@H]3C(=O)N[C@@H](C)C(=O)N3C[C@H](C)C[C@H]3C(=O)O[C@H]2C)c1`
# output 22.6

# input For the compound CCOC(=O)c1nn(C2CCCCO2)c2ccc(NS(=O)(=O)c3ccc(C)cc3)cc12 (configuration not stated) , report growth.
# output 92.6

# input Give recorded growth. `COc1ncc(-c2ccc3nccc(C#CCCCCC(=O)NO)c3c2)cc1NS(=O)(=O)c1ccc(F)cc1F`
# output 7.68

# input Please report growth for the following compound: `COc1ncc(-c2ccc3nc(N)n(-c4ccccc4C(F)(F)F)c(=O)c3c2)cc1S(=O)(=O)Nc1ccc(F)cc1F`
# output 39
